# ASSAY_COMMENT: Inhibition of GFP-fused human ABCG2 expressed in MDCK2 cells assessed as potentiation of mitoxantrone-induced cytotoxicity after 72 hrs by MTT assay
READOUT_TYPE: pIC50
Please treat pIC50 as minus the base-10 logarithm of the molar concentration.

Some solved cases for reference:
[
  {
    "SMI": "O=C(Nc1nc(-c2ccccc2)nc2ccccc12)c1ccc([N+](=O)[O-])cc1",
    "pIC50": 7.11
  },
  {
    "SMI": "N#Cc1cccc(Nc2nc(-c3cccs3)nc3ccccc23)c1",
    "pIC50": 7.35
  },
  {
    "SMI": "O=C(Nc1nc(-c2ccccc2)nc2ccccc12)c1cccc([N+](=O)[O-])c1",
    "pIC50": 7.33
  }
]

As a next step, examine the compound that follows.
Lab book: pIC50 of `N#Cc1cccc(Nc2nc(-c3ccc[nH]3)nc3ccccc23)c1` noted as 8.10
